- Target Under Test: T1, Human CD3eg linker (human)
- T1 construct: Single-chain construct; also called recombinant human CD3
- T1 chain: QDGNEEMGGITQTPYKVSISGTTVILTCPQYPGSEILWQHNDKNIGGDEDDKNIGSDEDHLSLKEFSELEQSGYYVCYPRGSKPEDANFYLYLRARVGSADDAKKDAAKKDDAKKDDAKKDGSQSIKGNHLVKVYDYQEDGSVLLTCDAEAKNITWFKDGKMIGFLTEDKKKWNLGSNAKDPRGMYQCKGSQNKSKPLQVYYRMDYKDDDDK
- Assay: SPR; fold vs parent H183/L072
Experimental Readout: fold change of affinity (fold)
Report the value in fold with no unit label.

Exercise: Fill in: fold change of affinity of H183/L072 VL F55W (antibody, name in Kabat numbering, V domains shown) VH: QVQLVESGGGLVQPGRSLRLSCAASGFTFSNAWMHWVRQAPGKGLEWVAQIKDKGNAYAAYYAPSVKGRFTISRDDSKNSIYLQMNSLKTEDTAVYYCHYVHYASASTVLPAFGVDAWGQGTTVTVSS VL: DIVMTQSPLSLPVTPGEPASISCQASQELVHMNRNTYLHWYQQKPGQAPRLLIYKVSNRWPGVPDRFSGSGSGTDFTLKISRVEAEDVGVYYCAQGTSVPFTFGQGTKLEIK is ___
Key: 0.2

Exercise: Fill in: fold change of affinity of H183/L072 VL A89V (antibody, name in Kabat numbering, V domains shown) VH: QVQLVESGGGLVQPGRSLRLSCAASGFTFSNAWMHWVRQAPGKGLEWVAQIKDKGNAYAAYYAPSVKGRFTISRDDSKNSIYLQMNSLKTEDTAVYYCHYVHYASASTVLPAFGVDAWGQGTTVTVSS VL: DIVMTQSPLSLPVTPGEPASISCQASQELVHMNRNTYLHWYQQKPGQAPRLLIYKVSNRFPGVPDRFSGSGSGTDFTLKISRVEAEDVGVYYCVQGTSVPFTFGQGTKLEIK is ___
Key: 0.4

Exercise: Fill in: fold change of affinity of H183/L072 VL A25S (antibody, name in Kabat numbering, V domains shown) VH: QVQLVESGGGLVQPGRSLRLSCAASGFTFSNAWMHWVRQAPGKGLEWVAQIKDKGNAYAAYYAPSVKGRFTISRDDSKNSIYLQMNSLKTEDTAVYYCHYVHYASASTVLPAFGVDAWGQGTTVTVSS VL: DIVMTQSPLSLPVTPGEPASISCQSSQELVHMNRNTYLHWYQQKPGQAPRLLIYKVSNRFPGVPDRFSGSGSGTDFTLKISRVEAEDVGVYYCAQGTSVPFTFGQGTKLEIK is ___
Key: 1.3
